Origin of values: ChEMBL document CHEMBL3751663

System: A549
Assay: Cytotoxicity against human A549 cells
Type: cell-based
VALUE_KIND: Activity

{"CHEM_SMILES": "Cc1cccc(Oc2ccc(-c3nc(N)nc(N)n3)cc2)c1", "TEST_TARGET": "A549", "Activity": "Non-toxic"}
{"CHEM_SMILES": "Cc1cc(Oc2ccc(-c3nc(N)nc(N)n3)cc2)ccc1Cl", "TEST_TARGET": "A549", "Activity": "Non-toxic"}
{"CHEM_SMILES": "Nc1nc(N)nc(-c2ccc(Oc3ccccc3)cc2)n1", "TEST_TARGET": "A549", "Activity": "Non-toxic"}
{"CHEM_SMILES": "Nc1nc(N)nc(-c2ccc(Oc3ccccc3Cl)cc2)n1", "TEST_TARGET": "A549", "Activity": "Non-toxic"}
{"CHEM_SMILES": "Nc1nc(N)nc(-c2ccc(Sc3ccccc3)cc2)n1", "TEST_TARGET": "A549", "Activity": "Non-toxic"}
{"CHEM_SMILES": "Nc1nc(N)nc(-c2ccc(Oc3ccc(Cl)cc3Cl)cc2)n1", "TEST_TARGET": "A549", "Activity": "Non-toxic"}
{"CHEM_SMILES": "Nc1nc(N)nc(-c2ccc(Oc3ccc(F)cc3)cc2)n1", "TEST_TARGET": "A549", "Activity": "Non-toxic"}
{"CHEM_SMILES": "Cc1cc(Cl)ccc1Oc1ccc(-c2nc(N)nc(N)n2)cc1", "TEST_TARGET": "A549", "Activity": "Non-toxic"}

# return recorded Activity for entry Nc1nc(N)nc(-c2ccc(Oc3ccc(Cl)cc3)cc2)n1
Non-toxic

# return recorded Activity for entry Cc1ccc(Oc2ccc(-c3nc(N)nc(N)n3)cc2)cc1
Non-toxic

# return recorded Activity for entry CC(C)(C)c1ccc(Oc2ccc(-c3nc(N)nc(N)n3)cc2)cc1
Non-toxic

# return recorded Activity for entry COc1ccc(Oc2ccc(-c3nc(N)nc(N)n3)cc2)cc1
Non-toxic

# return recorded Activity for entry Cc1cccc(C)c1Oc1ccc(-c2nc(N)nc(N)n2)cc1
Non-toxic
